# tested.target: CD3 subunits (CD3E, CD3G, CD3D, CD3Z) (human, UniProt P07766 23-207; P09693 23-182; P04234 22-171; P20963 22-164)
# Sequence (P07766 23-207, chain 1 of 4): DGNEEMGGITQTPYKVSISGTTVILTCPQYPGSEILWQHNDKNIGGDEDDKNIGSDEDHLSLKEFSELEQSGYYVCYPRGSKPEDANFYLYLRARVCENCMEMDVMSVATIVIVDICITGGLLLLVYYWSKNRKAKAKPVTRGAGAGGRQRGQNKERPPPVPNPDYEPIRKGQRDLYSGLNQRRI
# Sequence (P09693 23-182, chain 2 of 4): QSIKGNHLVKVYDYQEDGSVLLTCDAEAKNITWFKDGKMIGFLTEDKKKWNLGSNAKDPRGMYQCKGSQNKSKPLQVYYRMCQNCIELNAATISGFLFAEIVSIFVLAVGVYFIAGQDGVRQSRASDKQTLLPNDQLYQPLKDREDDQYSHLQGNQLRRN
# Sequence (P04234 22-171, chain 3 of 4): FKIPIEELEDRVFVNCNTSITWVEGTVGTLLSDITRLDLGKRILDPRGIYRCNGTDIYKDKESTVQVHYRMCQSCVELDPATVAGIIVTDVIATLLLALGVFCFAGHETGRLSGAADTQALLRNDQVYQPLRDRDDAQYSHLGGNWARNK
# Sequence (P20963 22-164, chain 4 of 4): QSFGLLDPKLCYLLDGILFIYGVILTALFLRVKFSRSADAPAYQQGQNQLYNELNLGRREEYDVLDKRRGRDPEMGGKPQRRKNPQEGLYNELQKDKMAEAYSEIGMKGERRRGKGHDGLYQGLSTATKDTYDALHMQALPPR
# protocol.description: cell-based or functional assay
observation.type: CD3-recruiting activity (CD3-positive proportion, N=3), CD3-stably expressing 293T cells

Reference set, count: 4
modified TCR consisting of β2 and α9 (TCR) TCR alpha: FNNSIIPEDTFFPSPESSCDVKLVEKSFETDTNLNFQNLSVIGFRILLLKVAGFNLLMTLRLWSS TCR beta: ATLVCLATGFYPDHVELSWWVNGKEVHSGVSTDPQPLKEQPALNDSRYCLSSRLRVSATFWQNPRNHFRCQVQFYGLSENDEWTQDRAKPVTQIVSAEAWGRADCGFTSESYQQGVLSATILYEILLGKATLYAVLVSALVLMAMVKRKDSRG: ≥ 20%
modified TCR consisting of β2 and α10 (TCR) TCR alpha: IPEDTFFPSPESSCDVKLVEKSFETDTNLNFQNLSVIGFRILLLKVAGFNLLMTLRLWSS TCR beta: ATLVCLATGFYPDHVELSWWVNGKEVHSGVSTDPQPLKEQPALNDSRYCLSSRLRVSATFWQNPRNHFRCQVQFYGLSENDEWTQDRAKPVTQIVSAEAWGRADCGFTSESYQQGVLSATILYEILLGKATLYAVLVSALVLMAMVKRKDSRG: ≥ 20%
modified TCR of the combination of βCR and α5 (TCR) TCR alpha: LDMRSMDFKSNSAVAWSNKSDFACANAFNNSIIPEDTFFPSPESSCDVKLVEKSFETDTNLNFQNLSVIGFRILLLKVAGFNLLMTLRLWSS TCR beta: EDLKNVFPPEVAVFEPSEAEISHTQKATLVCLATGFYPDHVELSWWVNGKEVHSGVSTDPQPLKEQPALNDSRYCLSSRLRVSATFWQNPRNHFRCQVQFYGLSENDEWTQDRAKPVTQIVSAEAWGRADCGFTSESYQQGVLSATILYEILLGKATLYAVLVSALVLMAMVKRKDSRG: ≥ 80%
modified TCR of the combination of βCR and α6 (TCR) TCR alpha: KSNSAVAWSNKSDFACANAFNNSIIPEDTFFPSPESSCDVKLVEKSFETDTNLNFQNLSVIGFRILLLKVAGFNLLMTLRLWSS TCR beta: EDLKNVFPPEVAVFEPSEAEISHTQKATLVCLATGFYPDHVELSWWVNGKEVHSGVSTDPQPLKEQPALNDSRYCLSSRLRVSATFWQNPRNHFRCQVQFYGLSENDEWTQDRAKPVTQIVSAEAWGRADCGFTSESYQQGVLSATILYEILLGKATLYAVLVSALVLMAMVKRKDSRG: ≥ 80%

From here, focus on the item given below.
Task item: Respond only with CD3-recruiting activity (CD3-positive proportion, N=3), CD3-stably expressing 293T cells recorded for modified TCR consisting of β2 and α8 (TCR) TCR alpha: CANAFNNSIIPEDTFFPSPESSCDVKLVEKSFETDTNLNFQNLSVIGFRILLLKVAGFNLLMTLRLWSS TCR beta: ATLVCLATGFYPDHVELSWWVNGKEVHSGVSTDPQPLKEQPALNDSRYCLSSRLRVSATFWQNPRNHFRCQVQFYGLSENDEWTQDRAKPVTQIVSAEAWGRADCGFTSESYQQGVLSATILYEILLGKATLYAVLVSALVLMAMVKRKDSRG
Reply: ≥ 20%
